Origin of values: paper PMC7966745

Target: T1, FabI, enoylreductase of E. coli fatty acid biosynthesis (E. coli, UniProt P0AEK4 1-262)
T1 construct: FabI enoyl-ACP reductase, E. coli; titrated with 0.5 mM NAD+ in the buffer; also called ER; source: E. coli BL21 (DE3), purified (Ni-IMAC, Superdex 75)
T1 sequence: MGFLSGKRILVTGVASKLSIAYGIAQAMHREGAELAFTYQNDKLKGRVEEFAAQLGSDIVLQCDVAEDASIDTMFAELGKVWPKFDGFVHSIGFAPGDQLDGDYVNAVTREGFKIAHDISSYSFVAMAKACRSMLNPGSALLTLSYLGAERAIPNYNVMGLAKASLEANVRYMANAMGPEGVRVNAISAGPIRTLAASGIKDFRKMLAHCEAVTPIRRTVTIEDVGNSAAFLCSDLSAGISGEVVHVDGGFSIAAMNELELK
Test: NMR titration; 1H-15N HSQC of perdeuterated 15N-C8-AcpP with increasing unlabeled partner protein, five points; TITAN 2D lineshape analysis, flexible stoichiometry model, error from 300 bootstrap steps; 37 °C, 10 mM potassium phosphate pH 7.4, 0.5 mM TCEP, 0.5 mM NAD+, 0.1% NaN3
Settings: both partners purified
observation.type: Kd (nM)
Report as a plain number; the unit nM is understood.

## Input Would you kindly share the measured Kd for octanoyl-AcpP (15N-C8-AcpP), E. coli acyl carrier protein (natural protein, octanoyl pantethenamide probe loaded as a 4'-phosphopantetheine analog (amide linked octanoyl) on S36; uniformly 15N labeled and perdeuterated, Acyl carrier protein AcpP of E. coli; Grown on a His-tagged pET-22b vector; also called amide linked octanoyl AcpP; source: E. coli BL21 (DE3), M9 minimal media with 15N NH4Cl and D2O, purified; made apo with ACPH, then loaded with an octanoyl pantethenamide probe (CoaA, CoaD, CoaE, Sfp)) STIEERVKKIIGEQLGVKQEEVTNNASFVEDLGADSLDTVELVMALEEEFDTEIPDEEAEKITTVQAAIDYINGHQA ?
## Output 1600
